# System: P. falciparum stage V gametocytes
# Set-up: BacTiter-Glo ATP luminescence viability of purified stage V gametocytes in 384-well plates, per cent inhibition versus DMSO
# Reported Conditions: 48 h, 5 µM; inhibitor
The whole screen tested about 13,000 compounds, of which about 3,200 (25%) showed an effect of 50% or more. The list shows a part of the results.

>  <Compound>
CSC1=NC(=Nc2ccccc2C)C2(CCC(C(C)(C)C)CC2)N1c1ccccc1Cl (centres unmarked)

>  <Readout Unit>
%

>  <% Inhibition>
53.76

$$$$
>  <Compound>
Cc1cc(C(=O)Nc2ccc3c(c2)CCN3C2CCN(Cc3cccc4cc[nH]c34)C2)no1 (centres unmarked)

>  <Readout Unit>
%

>  <% Inhibition>
42.96

$$$$
>  <Compound>
CN(Cc1cccc(F)c1)C1CCN(c2cc(NC(=O)c3cccc(F)c3)ccn2)CC1

>  <Readout Unit>
%

>  <% Inhibition>
-7.193

$$$$
>  <Compound>
Cc1cccc(C)c1NC1=NC(=S)N(c2cccc(Cl)c2)C12CCC(C(C)(C)C)CC2 (centres unmarked)

>  <Readout Unit>
%

>  <% Inhibition>
-11.15

$$$$
>  <Compound>
O=C(/C=C/c1ccc(Cl)c(Cl)c1)NCCCCCN1CCC(NC(=O)Nc2cccc(Cl)c2F)CC1

>  <Readout Unit>
%

>  <% Inhibition>
-53.7

$$$$
>  <Compound>
N#Cc1cccc(C(=O)NC2CCN(c3ccnc(Nc4ccc(F)cc4)n3)C2)c1 (centres unmarked)

>  <Readout Unit>
%

>  <% Inhibition>
17.79

$$$$
>  <Compound>
CSC1=NC(=Nc2c(C)cccc2C)C2(CCCCC2)N1c1ccccc1Cl

>  <Readout Unit>
%

>  <% Inhibition>
13.06

$$$$
>  <Compound>
CCOc1ccc2c(c1)OC(c1ccccc1)(C(F)(F)F)NC2=O (centres unmarked)

>  <Readout Unit>
%

>  <% Inhibition>
18.25

$$$$

###

# Test system: P. falciparum stage V gametocytes
# Parameters: BacTiter-Glo ATP luminescence viability of purified stage V gametocytes in 384-well plates, per cent inhibition versus DMSO
# Reported Conditions: 48 h, 5 µM; inhibitor
The campaign covered roughly 13,000 compounds. About 3,200 (25%) showed an effect of 50% or more. Some of the results follow.
Recorded Metric: % Inhibition (%)

>  <Molecule>
Cc1c(C)n(C2CCCCC2)c2ncnc(OC3CCN(CC(=O)NC4CC4)CC3)c12

>  <Readout Unit>
%

>  <Measurement>
15.8

$$$$
>  <Molecule>
CCc1ccc(-c2nc3cc(NC(=O)c4ccc([N+](=O)[O-])o4)ccc3o2)cc1

>  <Readout Unit>
%

>  <Measurement>
1.176

$$$$
>  <Molecule>
O=C(/C=C/c1ccc(Cl)c(Cl)c1)N1CCCC(CCCN2CCC(c3c[nH]c4ccccc34)CC2)C1 (centres unmarked)

>  <Readout Unit>
%

>  <Measurement>
18.14

$$$$
>  <Molecule>
Cc1cc(-c2ccc(NC(=O)N3CCc4cc(Br)c(N5CCN(C)CC5)cc43)cc2)cc(C)n1

>  <Readout Unit>
%

>  <Measurement>
26.15

$$$$
>  <Molecule>
Cc1c[nH]c2cc(/C=C/C(=O)NC3CCC(CCN4CCc5ccc(C#N)cc5CC4)CC3)ccc12 (centres unmarked)

>  <Readout Unit>
%

>  <Measurement>
21.27

$$$$
>  <Molecule>
COc1ccc(-c2nc(NC(=O)COc3ccc(C(C)=O)cc3)sc2C)cc1

>  <Readout Unit>
%

>  <Measurement>
2.358

$$$$
>  <Molecule>
c1ccc2c(C3CCN(CCCCOc4ccc5c(c4)CCN(C4CCC4)CC5)CC3)c[nH]c2c1

>  <Readout Unit>
%

>  <Measurement>
103

$$$$
>  <Molecule>
Oc1ccc(CCNc2nc(NCCCOc3ccccc3-c3cccnc3)nc(N3CCNCC3)n2)cc1

>  <Readout Unit>
%

>  <Measurement>
19.58

$$$$
>  <Molecule>
CCCc1cc(Cc2cnc(N)nc2N)c2cccnc2c1OC

>  <Readout Unit>
%

>  <Measurement>
13.25

$$$$
>  <Molecule>
Oc1ccc(CCNc2nc(NCc3ccccc3-c3ccc(C(F)(F)F)cc3)nc(N3CCCNCC3)n2)cc1

>  <Readout Unit>
%

>  <Measurement>
24.02

$$$$
>  <Molecule>
O=C(Nc1ccc2oc(-c3ccc(Cl)cc3Cl)nc2c1)c1ccc([N+](=O)[O-])o1

>  <Readout Unit>
%

>  <Measurement>
49.41

$$$$
>  <Molecule>
O=C(NC1CC1)c1ccc(N2CCC(COc3cccc(F)c3)CC2)nc1

>  <Readout Unit>
%

>  <Measurement>
11.49

$$$$
>  <Molecule>
Oc1ccc(CCNc2nc(NCc3ccccc3-c3ccccc3)nc(N3CCCNCC3)n2)cc1

>  <Readout Unit>
%

>  <Measurement>
28.34

$$$$
>  <Molecule>
CCC(C)c1ccc(-n2c(Nc3ccccc3)nc3cc(S(N)(=O)=O)ccc32)cc1 (centres unmarked)

>  <Readout Unit>
%

>  <Measurement>
-10.42

$$$$
>  <Molecule>
COC(=O)c1sc2ccccc2c1NC(=O)c1ccc(C)c(C)c1

>  <Readout Unit>
%

>  <Measurement>
21.99

$$$$
>  <Molecule>
Cc1cccc(-c2nc3cc(NC(=O)c4ccc([N+](=O)[O-])o4)ccc3o2)c1

>  <Readout Unit>
%

>  <Measurement>
17.49

$$$$
>  <Molecule>
Cc1ccccc1C1CCN(C2CCC(NC(=O)/C=C/c3cccc(Cl)c3)CC2)CC1 (centres unmarked)

>  <Readout Unit>
%

>  <Measurement>
-91.25

$$$$
>  <Molecule>
Oc1ccc(CCNc2nc(NCCCOc3ccccc3-c3ccc(C(F)(F)F)cc3)nc(N3CCNCC3)n2)cc1

>  <Readout Unit>
%

>  <Measurement>
56.06

$$$$
>  <Molecule>
OCCCCCCNc1nc(NCc2ccccc2-c2ccc(C(F)(F)F)cc2)nc(N2CCNCC2)n1

>  <Readout Unit>
%

>  <Measurement>
66.94

$$$$
>  <Molecule>
O=C(CCn1cncn1)N1CCCC(c2[nH]c3ccccc3c2-c2ccncc2)C1 (centres unmarked)

>  <Readout Unit>
%

>  <Measurement>
-42.34

$$$$
>  <Molecule>
CC(C)c1ccc2oc(-c3ccc(NC(=O)c4ccc([N+](=O)[O-])o4)cc3)nc2c1

>  <Readout Unit>
%

>  <Measurement>
79.92

$$$$
>  <Molecule>
CC(=O)Nc1ccc(CN2CCC(NC(=O)c3ccc(-c4cccc(C(F)(F)F)c4)s3)CC2)cc1

>  <Readout Unit>
%

>  <Measurement>
3.235

$$$$
>  <Molecule>
O=C(/C=C/c1ccc(Cl)c(Cl)c1)NC1C2CCC1CC(CN1CCC(c3c[nH]c4ccccc34)CC1)C2 (centres unmarked)

>  <Readout Unit>
%

>  <Measurement>
36.93

$$$$
>  <Molecule>
CCc1c(C)c2ccc3c(c2oc1=O)CN(CCc1ccc(F)cc1)CO3

>  <Readout Unit>
%

>  <Measurement>
34.69

$$$$
>  <Molecule>
Cn1c(=O)c2nc(-c3ccc(Cl)cc3)nnc2n(CCCC#N)c1=O

>  <Readout Unit>
%

>  <Measurement>
18.59

$$$$
>  <Molecule>
Cc1cc(N2CCCC2)nc(Nc2ccc(NC(=O)c3ccccc3F)cc2)n1

>  <Readout Unit>
%

>  <Measurement>
-34.77

$$$$
>  <Molecule>
CC(C)[C@@H](C(=O)NCc1cccc(C(F)(F)F)c1)N1C(=O)CCC1C(=O)Nc1ccc([N+](=O)[O-])cc1 (some centres unmarked)

>  <Readout Unit>
%

>  <Measurement>
-12.94

$$$$
>  <Molecule>
COC(=O)c1ccc(CC(C)NCC(O)c2cccc(C(F)(F)F)c2)c(OC)c1 (centres unmarked)

>  <Readout Unit>
%

>  <Measurement>
14.6

$$$$
>  <Molecule>
Cc1noc(=O)c2ccc(NC(=O)C(O)(CSc3ccccc3)CC(C)C)cc12 (centres unmarked)

>  <Readout Unit>
%

>  <Measurement>
46.49

$$$$
>  <Molecule>
Cc1cc(C)cc(OCC(O)CN(CCN2CCOCC2)C(=O)Nc2ccc(Br)cc2)c1 (centres unmarked)

>  <Readout Unit>
%

>  <Measurement>
2.41

$$$$
>  <Molecule>
COc1ccc2c(c1)CC1CN(CCCCNC(=O)c3ccc(NC(=O)c4cc(Cl)cc(Cl)c4)cc3)CCN1C2 (centres unmarked)

>  <Readout Unit>
%

>  <Measurement>
-15.2

$$$$
>  <Molecule>
CC(C)c1ccc(Nc2nc(NCCc3cnc[nH]3)nc(NCc3ccccc3)n2)cc1

>  <Readout Unit>
%

>  <Measurement>
-6.505

$$$$

###

Quick reference: % Inhibition of the listed items.
# Test system: P. falciparum stage V gametocytes
# Parameters: BacTiter-Glo ATP luminescence viability of purified stage V gametocytes in 384-well plates, per cent inhibition versus DMSO
# Reported Conditions: 48 h, 5 µM; inhibitor
Among all 13,000 compounds or so, about 3,200 (25%) showed an effect of 50% or more. Some of the results follow.
Recorded Metric: % Inhibition (%)

>  <Compound>
CN(C)CCOc1ccc(/C(=C(/CCCn2ccnc2)c2ccccc2)c2ccc(O)cc2)cc1

>  <Recorded Metric>
% Inhibition

>  <Readout Unit>
%

>  <Measurement>
-20.55

$$$$
>  <Compound>
COc1c(C)cc(I)cc1CNCCCNc1cc(=O)c2ccccc2[nH]1

>  <Recorded Metric>
% Inhibition

>  <Readout Unit>
%

>  <Measurement>
-89.66

$$$$
>  <Compound>
CN(C)c1ccc(Br)c(Br)c1

>  <Recorded Metric>
% Inhibition

>  <Readout Unit>
%

>  <Measurement>
-4.164

$$$$
>  <Compound>
CC1(CCc2ccccc2)N=C(N)N(Cc2ccccc2)C(=O)C1c1ccc(Cl)c(Cl)c1 (centres unmarked)

>  <Recorded Metric>
% Inhibition

>  <Readout Unit>
%

>  <Measurement>
88.15

$$$$
>  <Compound>
CC1(C)NC(N)=NC(=N)N1OCCSCCON1C(=N)N=C(N)NC1(C)C

>  <Recorded Metric>
% Inhibition

>  <Readout Unit>
%

>  <Measurement>
6.143

$$$$
>  <Compound>
COc1cc(CNCCCNc2nc3ncccc3[nH]2)c2[nH]cc(Br)c2c1

>  <Recorded Metric>
% Inhibition

>  <Readout Unit>
%

>  <Measurement>
-28.64

$$$$
>  <Compound>
O=C1COC(c2ccccc2)(c2ccccc2)CN1CC1CCN(Cc2ccc(O)cc2Cl)C1 (centres unmarked)

>  <Recorded Metric>
% Inhibition

>  <Readout Unit>
%

>  <Measurement>
44.26

$$$$
>  <Compound>
CCCSc1nc2c(c(=O)n1CCc1ccccc1)C1(CCCC1)Cc1ccccc1-2

>  <Recorded Metric>
% Inhibition

>  <Readout Unit>
%

>  <Measurement>
-17.67

$$$$
>  <Compound>
C=C(C)CSc1nc2c(c(=O)n1CCc1ccccc1)C1(CCCC1)Cc1ccccc1-2

>  <Recorded Metric>
% Inhibition

>  <Readout Unit>
%

>  <Measurement>
66.35

$$$$
>  <Compound>
CCCCCCC1(C)N=C(N)N=C(N)C1c1ccc(Cl)c(Cl)c1 (centres unmarked)

>  <Recorded Metric>
% Inhibition

>  <Readout Unit>
%

>  <Measurement>
22.11

$$$$
>  <Compound>
Cc1cc(N2CCCCC2)nc2ccc(NC(=O)c3cccc([N+](=O)[O-])c3)cc12

>  <Recorded Metric>
% Inhibition

>  <Readout Unit>
%

>  <Measurement>
6.095

$$$$
>  <Compound>
CC(C)Sc1nc2c(c(=O)n1CCc1ccccc1)C1(CCCC1)Cc1ccccc1-2

>  <Recorded Metric>
% Inhibition

>  <Readout Unit>
%

>  <Measurement>
-12.92

$$$$
>  <Compound>
COc1ccc(-c2cc(Nc3nc(-c4cccc(Cl)c4)nc4ccccc34)ccn2)cc1

>  <Recorded Metric>
% Inhibition

>  <Readout Unit>
%

>  <Measurement>
-54.58

$$$$
>  <Compound>
O=C(NCCN1CCCC1)N1CCCN(c2ncnc3cc(-c4ccc(Cl)cc4)sc23)CC1

>  <Recorded Metric>
% Inhibition

>  <Readout Unit>
%

>  <Measurement>
-0.6581

$$$$
>  <Compound>
CCCCCCCc1ccc(-c2c(C)[nH]c(C)c(Cl)c2=O)cn1

>  <Recorded Metric>
% Inhibition

>  <Readout Unit>
%

>  <Measurement>
34.89

$$$$
>  <Compound>
O=C(/C=C/c1ccc(Cl)cc1)NCCCCCN1CCCN(C(=O)Nc2cccc(Cl)c2)CC1

>  <Recorded Metric>
% Inhibition

>  <Readout Unit>
%

>  <Measurement>
-54.14

$$$$
>  <Compound>
CC1(CCc2ccccc2)N=C(N)N=C(N)C1c1ccc(Cl)c(Cl)c1 (centres unmarked)

>  <Recorded Metric>
% Inhibition

>  <Readout Unit>
%

>  <Measurement>
33.71

$$$$
